Molecular target: Cellular tumor antigen p53 (Homo sapiens) (UniProt P04637)
Sequence (P04637 whole entry, looked up): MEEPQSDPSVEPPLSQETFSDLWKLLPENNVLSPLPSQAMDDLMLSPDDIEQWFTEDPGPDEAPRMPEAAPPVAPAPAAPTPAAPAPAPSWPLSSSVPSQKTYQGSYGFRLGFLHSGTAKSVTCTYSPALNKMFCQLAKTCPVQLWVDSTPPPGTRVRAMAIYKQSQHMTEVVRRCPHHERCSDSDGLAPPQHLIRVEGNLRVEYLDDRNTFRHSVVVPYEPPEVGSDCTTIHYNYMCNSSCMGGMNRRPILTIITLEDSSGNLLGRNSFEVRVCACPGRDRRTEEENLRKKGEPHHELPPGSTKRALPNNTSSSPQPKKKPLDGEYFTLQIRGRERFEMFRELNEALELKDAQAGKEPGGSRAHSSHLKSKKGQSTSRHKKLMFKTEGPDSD
Test: TOX21_p53_BLA_p4_ratio: Tox21 HCT-116 p53 Agonism Beta-lactamase Assay, Ratio, Phase 4 (AID 2283601)
Inconclusive results are not listed. Activity calls are given as the source filed them. Rule for the calls: active = hit-call score of the fitted dose curve at least 0.9, where 1 is the maximum; inconclusive = response in the unintended direction; inactive = score below 0.9.
Respond with a class label; see class 1 for active, class 0 for inactive

Known results for compounds:
[
  {
    "compound": "Cc1ccc(O)c(-n2nc3ccccc3n2)c1",
    "assigned_class": "class 0"
  },
  {
    "compound": "CCCCOC(=O)[C@H](C)O",
    "assigned_class": "class 0"
  },
  {
    "compound": "CCC(C)CO (centres undefined)",
    "assigned_class": "class 0"
  },
  {
    "compound": "CCCCCC/C=C/CCCCCCCC(=O)O",
    "assigned_class": "class 0"
  },
  {
    "compound": "O=C1C=CC(=O)N1c1ccccc1",
    "assigned_class": "class 1"
  }
]

// switching to the query compound
Prompt: Returns: the outcome recorded for `C[C@]12CC[C@H]3C(=CCc4cc(O)ccc43)[C@@H]1CCC2=O` in this assay.
Completion: class 0

----------
Read-out: Low-density lipoprotein receptor (LDLR), LDLR (gene 3949)
Assay: BSK_CASM3C_LDLR: BioMAP Diversity Plus: CASM3C Assay for Low-density lipoprotein receptor (LDLR) Biomarker Activity (AID 2283045);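 note: LDLR protein level on the cell surface quantified by ELISA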
Details: primary human coronary artery smooth muscle cells; actives raise or lower the signal
Calls of active or inactive are those of the source. Rule for the calls: active = hit-call score of the fitted dose curve at least 0.9, where 1 is the maximum; inactive = score below 0.9.
Respond with a class label; see T (active), F (inactive)

Known results for molecules:
[
  {
    "molecule": "CC(C)CCCC(C)CCO (centres undefined)",
    "assigned_class": "T"
  },
  {
    "molecule": "CCN=C1C=CC(=C(c2ccc(N(CC)CC)cc2)c2ccc(N(CC)CC)cc2)c2ccccc21",
    "assigned_class": "F"
  },
  {
    "molecule": "Nc1cc([N+](=O)[O-])cc(Cl)c1O",
    "assigned_class": "F"
  },
  {
    "molecule": "O=S(=O)(O)CCC(F)(F)C(F)(F)C(F)(F)C(F)(F)C(F)(F)C(F)(F)C(F)(F)C(F)(F)F",
    "assigned_class": "F"
  },
  {
    "molecule": "O=C(O)C(F)(F)C(F)(F)C(F)(F)C(=O)O",
    "assigned_class": "F"
  }
]

Prompt: Returns: the outcome recorded for `Cc1ccc(O)c(-n2nc3ccccc3n2)c1` in this assay.
Completion: F

Prompt: Returns: the outcome recorded for `C=C(C)C(=O)OCC(F)(F)C(F)(F)C(F)(F)C(F)F` in this assay.
Completion: F

----------
Read-out: Urokinase-type plasminogen activator receptor (uPAR), PLAUR (gene 5329)
Experiment: BSK_CASM3C_uPAR: BioMAP Diversity Plus: CASM3C Assay for Urokinase-type plasminogen activator receptor (uPAR) Biomarker Activity (AID 2283054);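 note: cell-surface uPAR protein level quantified by ELISA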
Details: primary human coronary artery smooth muscle cells; actives raise or lower the signal
Active and inactive are the calls of the source. How the source made its calls: active means hit-call score of the fitted dose curve at least 0.9, where 1 is the maximum; inactive means score below 0.9.
Respond with a class label; see Y (active), N (inactive)

[
  {
    "compound": "NC(O)(C(F)(F)F)C(F)(F)F",
    "assigned_class": "N"
  },
  {
    "compound": "OCC(O)CC(F)(F)C(F)(F)C(F)(F)C(F)(F)C(F)(F)C(F)(F)C(F)(F)C(F)(F)F (stereo unspecified)",
    "assigned_class": "N"
  },
  {
    "compound": "NCC(F)(F)C(F)(F)C(F)(F)C(F)(F)C(F)(F)C(F)(F)F",
    "assigned_class": "N"
  },
  {
    "compound": "C=C(C)C(=O)OCC(F)(F)C(F)(F)C(F)(F)C(F)F",
    "assigned_class": "N"
  }
]

Prompt: Returns: the outcome recorded for `O=C(O)CCC(F)(F)C(F)(F)C(F)(F)C(F)(F)C(F)(F)C(F)(F)C(F)(F)F` in this assay.
Completion: N

Prompt: Returns: the outcome recorded for `CCN(CC)c1ccc(C=O)c(O)c1` in this assay.
Completion: N
